- Test system: Transgenic T2 Arabidopsis plants and ARBTH WT MC24 non-transgenic
- Method Notes: Greenhouse post spray test, injury 14 DAT (Tables ii, iii);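 further: value is percent injury to the sprayed plants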
- Format: in vivo, Arabidopsis thaliana
- Conditions Used: Arabidopsis thaliana, 336 h, Table ii, ALOMY_PPO2_R137L_F438V event G, 200 g ai/ha

{"columns": ["Molecular String", "Units Symbol", "pest or weed control at 200 g/ha"],
 "data": [
  ["Cn1c(C(F)(F)F)cc(=O)n(-c2nc(Oc3ccccc3OCC(=O)NS(C)(=O)=O)c(Cl)cc2F)c1=O", "%", 5],
  ["CCOC(=O)COc1ncccc1Oc1nc(-n2c(=O)cc(C(F)(F)F)n(C)c2=O)c(F)cc1Cl", "%", 20],
  ["CCOC(=O)COc1ccc(F)cc1Oc1nc(-n2c(=O)cc(C(F)(F)F)n(C)c2=O)c(F)cc1Cl", "%", 8],
  ["CCOC(=O)COc1ccccc1Oc1nc(-n2c(=O)cc(C(F)(F)F)n(C)c2=O)ccc1Br", "%", 0],
  ["CCOC(=O)COc1ccccc1Oc1nc(-n2c(=O)cc(C(F)(F)F)n(C)c2=O)c(F)cc1Cl", "%", 8]
]}

---

Listed here are compounds together with their documented pest or weed control at 10 g/ha.
- Tested on: Transgenic T2 Arabidopsis plants and ARBTH WT MC24 non-transgenic
- Method Notes: Greenhouse post spray test, injury 14 DAT (Tables ii, iii);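 further: value is percent injury to the sprayed plants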
- Format: in vivo, Arabidopsis thaliana
- Conditions Used: Arabidopsis thaliana, 336 h, Table ii, ARBTH_PPO1_WT event Q, 10 g ai/ha

{"columns": ["Molecular String", "pest or weed control at 10 g/ha / %"],
 "data": [
  ["CCOC(=O)COc1ncccc1Oc1nc(-n2c(=O)cc(C(F)(F)F)n(C)c2=O)c(F)cc1Cl", 100],
  ["Cn1c(C(F)(F)F)cc(=O)n(-c2nc(Oc3ccccc3OCC(=O)O)c(F)cc2F)c1=O", 70],
  ["CCOC(=O)COc1ccccc1Oc1nc(-n2c(=O)cc(C(F)(F)F)n(C)c2=O)c(F)cc1F", 55],
  ["Cn1c(C(F)(F)F)cc(=O)n(-c2nc(Oc3ccccc3OCC(=O)NS(C)(=O)=O)c(Cl)cc2F)c1=O", 100],
  ["Cn1c(C(F)(F)F)cc(=O)n(-c2nc(Oc3ccccc3OCC(=O)O)c(Cl)cc2F)c1=O", 99],
  ["Cn1c(C(F)(F)F)cc(=O)n(-c2nc(Oc3cccnc3OCC(=O)O)c(Cl)cc2F)c1=O", 98],
  ["CCOC(=O)COc1ccccc1Oc1nc(-n2c(=O)cc(C(F)(F)F)n(C)c2=O)c(F)cc1Cl", 100]
]}

---

- Tested on: Transgenic T2 Arabidopsis plants and ARBTH WT MC24 non-transgenic
- Method Notes: Greenhouse post spray test, injury 14 DAT (Tables ii, iii);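 further: value is percent injury to the sprayed plants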
- Assay type: in vivo, Arabidopsis thaliana
- Conditions Used: Arabidopsis thaliana, 336 h, Table ii, ARBTH WT MC24 non-transgenic, 10 g ai/ha + 1% MSO
Listed here are molecules together with their documented pest or weed control at 10 g/ha.

{"columns": ["Molecular String", "Target Of Assay", "Units Symbol", "pest or weed control at 10 g/ha"],
 "data": [
  ["Cn1c(C(F)(F)F)cc(=O)n(-c2nc(Oc3ccccc3OCC(=O)O)c(Cl)cc2F)c1=O", "Transgenic T2 Arabidopsis plants and ARBTH WT MC24 non-transgenic", "%", 100],
  ["CCOC(=O)COc1ncccc1Oc1nc(-n2c(=O)cc(C(F)(F)F)n(C)c2=O)c(F)cc1Cl", "Transgenic T2 Arabidopsis plants and ARBTH WT MC24 non-transgenic", "%", 100],
  ["Cn1c(C(F)(F)F)cc(=O)n(-c2nc(Oc3ccccc3OCC(=O)NS(C)(=O)=O)c(Cl)cc2F)c1=O", "Transgenic T2 Arabidopsis plants and ARBTH WT MC24 non-transgenic", "%", 100]
]}
